Target: T1, Spy_(24-127) (UniProt P77754 47-150)
T1 construct: Spy chaperone, residues 24-127; source: E. coli BL21 (DE3), purified (Ni-NTA, cation exchange, SEC); not shown: His6, N-terminal, cleaved; SUMO, N-terminal, cleaved
T1 sequence (looked up): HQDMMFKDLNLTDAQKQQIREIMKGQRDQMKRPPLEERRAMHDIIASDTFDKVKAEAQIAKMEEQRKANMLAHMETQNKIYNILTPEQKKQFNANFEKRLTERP
Assay: BLI; Octet RED96; client biotinylated and loaded on streptavidin sensors; Spy or Spy variant in solution at 0.25, 0.5, 1, 1.5 and 2 μM; 40 mM HEPES, 150 mM NaCl, pH 7.5; Kd calculated as koff/kon
Details: both partners purified
measurementName: pKd
Expect pKd as a plain number equal to -log10 of the molar concentration.

Which pKd value belongs to Im7 H40W L53A I54A (natural protein, biotin (EZ-link NHS-biotin, 1:1 molar ratio of biotin to protein), Im7 (colicin E7 immunity protein) with H40W L53A I54A; Spy was made with an N-terminal His6-SUMO tag that was cleaved; also called Im7AAW; partially folded client; source: purified by a similar procedure to Spy) MELKNSISDYTEAEFVQLLKEIEKENVAATDDVLDVLLEWFVKITEHPDGTDAAYYPSDNRDDSPEGIVKEIKEWRAANGKPGFKQG ?
5.76
